test system: NCI-H1944; test: relative viability (nuclei count vs DMSO), 5 days (fraction); higher = more cells survive; conditions: first compound 0.1 µM
# label = Y if relative viability < 0.4 else N

| molecule | answer-label |
| --- | --- |
| O=c1cc(N2CCOCC2)oc2c(-c3cccc4c3sc3ccccc34)cccc12 + C[C@]1(O)C[C@@H](c2nc(-c3ccc4ccc(-c5ccccc5)nc4c3)c3c(N)nccn32)C1 [Linsitinib] (partner 1 µM) | N |
| CCN(CC)CCCCNc1ncc2cc(-c3cc(OC)cc(OC)c3)c(NC(=O)NC(C)(C)C)nc2n1 + C[C@@H](Oc1cc(-c2cnn(C3CCNCC3)c2)cnc1N)c1c(Cl)ccc(F)c1Cl [Crizotinib] (partner 1 µM) | N |
| O=c1cc(N2CCOCC2)oc2c(-c3cccc4c3sc3ccccc34)cccc12 + CC(=O)c1c(C)c2cnc(Nc3ccc(N4CCNCC4)cn3)nc2n(C2CCCC2)c1=O [Palbociclib] (partner 0.5 µM) | Y |
| CCN(CC)CCCCNc1ncc2cc(-c3cc(OC)cc(OC)c3)c(NC(=O)NC(C)(C)C)nc2n1 + N=C(N)NC(=N)NCCc1ccccc1 [Phenformin] (partner 250 µM) | Y |
| CCN(CC)CCCCNc1ncc2cc(-c3cc(OC)cc(OC)c3)c(NC(=O)NC(C)(C)C)nc2n1 + Cc1nc(NC(=O)N2CCC[C@H]2C(N)=O)sc1-c1ccnc(C(C)(C)C(F)(F)F)c1 [Alpelisib] (partner 2 µM) | N |
| O=c1cc(N2CCOCC2)oc2c(-c3cccc4c3sc3ccccc34)cccc12 + CS(=O)(=O)N1CCN(Cc2cc3nc(-c4cccc5[nH]ncc45)nc(N4CCOCC4)c3s2)CC1 [Pictilisib] (partner 1 µM) | Y |
| CCN(CC)CCCCNc1ncc2cc(-c3cc(OC)cc(OC)c3)c(NC(=O)NC(C)(C)C)nc2n1 + Cc1nc(Nc2ncc(C(=O)Nc3c(C)cccc3Cl)s2)cc(N2CCN(CCO)CC2)n1 [Dasatinib] (partner 0.075 µM) | Y |
| CCN(CC)CCCCNc1ncc2cc(-c3cc(OC)cc(OC)c3)c(NC(=O)NC(C)(C)C)nc2n1 + CC(=O)c1c(C)c2cnc(Nc3ccc(N4CCNCC4)cn3)nc2n(C2CCCC2)c1=O [Palbociclib] (partner 0.5 µM) | Y |
| CCN(CC)CCCCNc1ncc2cc(-c3cc(OC)cc(OC)c3)c(NC(=O)NC(C)(C)C)nc2n1 + Cc1cc(Nc2cc(N3CCN(C)CC3)nc(Sc3ccc(NC(=O)C4CC4)cc3)n2)n[nH]1 [Tozasertib] (partner 0.1 µM) | Y |

---

tested on: EPLC-272H; test: relative viability (nuclei count vs DMSO), 5 days (fraction); higher = more cells survive; conditions: first compound 20 µM
measured-attribute: relative viability

| compound | value-reported |
| --- | --- |
| COCC1(CO)C(=O)C2CCN1CC2 (stereo not drawn) [PRIMA-1MET] + O=C(c1cc(Cc2n[nH]c(=O)c3ccccc23)ccc1F)N1CCN(C(=O)C2CC2)CC1 [Olaparib] (partner 8 µM) | 0.0737 |
| COCC1(CO)C(=O)C2CCN1CC2 (stereo not drawn) [PRIMA-1MET] + C[C@]1(O)C[C@@H](c2nc(-c3ccc4ccc(-c5ccccc5)nc4c3)c3c(N)nccn32)C1 [Linsitinib] (partner 1 µM) | 0.973 |
| COCC1(CO)C(=O)C2CCN1CC2 (stereo not drawn) [PRIMA-1MET] + C[C@@H](Oc1cc(-c2cnn(C3CCNCC3)c2)cnc1N)c1c(Cl)ccc(F)c1Cl [Crizotinib] (partner 1 µM) | 0.262 |

---

system: NCI-H1355; assay: relative viability (nuclei count vs DMSO), 5 days (fraction); higher = more cells survive; settings: first compound 0.01 µM
# label = rule met if relative viability < 0.7 else rule not met

| molecule | assayed-system | answer-label |
| --- | --- | --- |
| CCN(CC)CCCCNc1ncc2cc(-c3cc(OC)cc(OC)c3)c(NC(=O)NC(C)(C)C)nc2n1 + CS(=O)(=O)CCNCc1ccc(-c2ccc3ncnc(Nc4ccc(OCc5cccc(F)c5)c(Cl)c4)c3c2)o1 [Lapatinib] (partner 2 µM) | NCI-H1355 | rule not met |
| CCN(CC)CCCCNc1ncc2cc(-c3cc(OC)cc(OC)c3)c(NC(=O)NC(C)(C)C)nc2n1 + CCNC(=O)c1noc(-c2cc(C(C)C)c(O)cc2O)c1-c1ccc(CN2CCOCC2)cc1 [Luminespib] (partner 0.01 µM) | NCI-H1355 | rule not met |
| O=c1cc(N2CCOCC2)oc2c(-c3cccc4c3sc3ccccc34)cccc12 + CC(=O)c1c(C)c2cnc(Nc3ccc(N4CCNCC4)cn3)nc2n(C2CCCC2)c1=O [Palbociclib] (partner 0.5 µM) | NCI-H1355 | rule met |
| O=c1cc(N2CCOCC2)oc2c(-c3cccc4c3sc3ccccc34)cccc12 + C[C@]1(O)C[C@@H](c2nc(-c3ccc4ccc(-c5ccccc5)nc4c3)c3c(N)nccn32)C1 [Linsitinib] (partner 1 µM) | NCI-H1355 | rule not met |
| CCN(CC)CCCCNc1ncc2cc(-c3cc(OC)cc(OC)c3)c(NC(=O)NC(C)(C)C)nc2n1 + CS(=O)(=O)N1CCN(Cc2cc3nc(-c4cccc5[nH]ncc45)nc(N4CCOCC4)c3s2)CC1 [Pictilisib] (partner 1 µM) | NCI-H1355 | rule met |
| O=c1cc(N2CCOCC2)oc2c(-c3cccc4c3sc3ccccc34)cccc12 + C[C@@H](Oc1cc(-c2cnn(C3CCNCC3)c2)cnc1N)c1c(Cl)ccc(F)c1Cl [Crizotinib] (partner 1 µM) | NCI-H1355 | rule not met |

---

test system: NCI-H2085; test: relative viability (nuclei count vs DMSO), 5 days (fraction); higher = more cells survive; conditions: first compound 0.03162 µM
List of relative viability values.

| compound | assayed-system | relative viability |
| --- | --- | --- |
| O=c1cc(N2CCOCC2)oc2c(-c3cccc4c3sc3ccccc34)cccc12 + CC(=O)Nc1cccc(-n2c(=O)n(C3CC3)c(=O)c3c(Nc4ccc(I)cc4F)n(C)c(=O)c(C)c32)c1 [Trametinib] (partner 0.02 µM) | NCI-H2085 | 0.541 |
| CCN(CC)CCCCNc1ncc2cc(-c3cc(OC)cc(OC)c3)c(NC(=O)NC(C)(C)C)nc2n1 + CC(C)C[C@H](NC(=O)[C@H](Cc1ccccc1)NC(=O)c1cnccn1)B(O)O [Bortezomib] (partner 0.002 µM) | NCI-H2085 | 1.03 |
| O=c1cc(N2CCOCC2)oc2c(-c3cccc4c3sc3ccccc34)cccc12 + Cc1cc(Nc2cc(N3CCN(C)CC3)nc(Sc3ccc(NC(=O)C4CC4)cc3)n2)n[nH]1 [Tozasertib] (partner 0.1 µM) | NCI-H2085 | 0.813 |
| O=c1cc(N2CCOCC2)oc2c(-c3cccc4c3sc3ccccc34)cccc12 + Cc1nc(NC(=O)N2CCC[C@H]2C(N)=O)sc1-c1ccnc(C(C)(C)C(F)(F)F)c1 [Alpelisib] (partner 2 µM) | NCI-H2085 | 0.902 |
| CCN(CC)CCCCNc1ncc2cc(-c3cc(OC)cc(OC)c3)c(NC(=O)NC(C)(C)C)nc2n1 + C[C@@H](Oc1cc(-c2cnn(C3CCNCC3)c2)cnc1N)c1c(Cl)ccc(F)c1Cl [Crizotinib] (partner 1 µM) | NCI-H2085 | 0.917 |
| CCN(CC)CCCCNc1ncc2cc(-c3cc(OC)cc(OC)c3)c(NC(=O)NC(C)(C)C)nc2n1 + Cc1cc(Nc2cc(N3CCN(C)CC3)nc(Sc3ccc(NC(=O)C4CC4)cc3)n2)n[nH]1 [Tozasertib] (partner 0.1 µM) | NCI-H2085 | 0.762 |
| CCN(CC)CCCCNc1ncc2cc(-c3cc(OC)cc(OC)c3)c(NC(=O)NC(C)(C)C)nc2n1 + CC1(C)CCC(c2ccc(Cl)cc2)=C(CN2CCN(c3ccc(C(=O)NS(=O)(=O)c4ccc(N[C@H](CCN5CCOCC5)CSc5ccccc5)c(S(=O)(=O)C(F)(F)F)c4)cc3)CC2)C1 [Navitoclax] (partner 0.5 µM) | NCI-H2085 | 1.22 |
| CCN(CC)CCCCNc1ncc2cc(-c3cc(OC)cc(OC)c3)c(NC(=O)NC(C)(C)C)nc2n1 + Cc1nc(Nc2ncc(C(=O)Nc3c(C)cccc3Cl)s2)cc(N2CCN(CCO)CC2)n1 [Dasatinib] (partner 0.075 µM) | NCI-H2085 | 0.181 |
| O=c1cc(N2CCOCC2)oc2c(-c3cccc4c3sc3ccccc34)cccc12 + Nc1ncn([C@H]2C[C@H](O)[C@@H](CO)O2)c(=O)n1 [Decitabine] (partner 2 µM) | NCI-H2085 | 0.519 |
| O=c1cc(N2CCOCC2)oc2c(-c3cccc4c3sc3ccccc34)cccc12 + Cc1nc(Nc2ncc(C(=O)Nc3c(C)cccc3Cl)s2)cc(N2CCN(CCO)CC2)n1 [Dasatinib] (partner 0.075 µM) | NCI-H2085 | 0.241 |
